biological target: T1, human ACTH 1-13 (human, ends and bridges not checked); assay: SPR ProteOn, antibody immobilised; SPR, antibody on the chip, alpha-MSH alone (Table 6)
T1 construct: also called human alpha-MSH (ACTH 1-13); alpha-MSH
T1 peptide: SYSMEHFRWGKPV
Ends that are not written are not given here.
testReadout: koff (s⁻¹)
Unit s⁻¹ implied. Number only.

Request: Identify koff associated with the binder Ab5 (antibody, human IgG1, kappa, N297A, V domains shown, rabbit/human chimeric antibody, made in HEK-293) VH: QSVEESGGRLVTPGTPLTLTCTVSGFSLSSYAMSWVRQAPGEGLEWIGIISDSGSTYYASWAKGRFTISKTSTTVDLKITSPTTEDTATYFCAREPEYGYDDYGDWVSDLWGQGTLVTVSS VL: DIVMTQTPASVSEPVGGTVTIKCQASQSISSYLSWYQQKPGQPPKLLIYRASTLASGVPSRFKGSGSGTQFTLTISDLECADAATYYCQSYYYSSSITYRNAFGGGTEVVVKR
Response: 0.014
